Reported IC50 is given for each of the following compounds.
Biological target: Human DGAT1 (Homo sapiens, UniProt O75907)
Construct: my translation of the primer: M-G-DYKDDDD-GDRGSSRRR) (N); made in house; host or cells: Sf9 insect cells (recombinant baculovirus BAC-DGAT1, pFASTBAC1); microsome fraction
Sequence (O75907 1-488): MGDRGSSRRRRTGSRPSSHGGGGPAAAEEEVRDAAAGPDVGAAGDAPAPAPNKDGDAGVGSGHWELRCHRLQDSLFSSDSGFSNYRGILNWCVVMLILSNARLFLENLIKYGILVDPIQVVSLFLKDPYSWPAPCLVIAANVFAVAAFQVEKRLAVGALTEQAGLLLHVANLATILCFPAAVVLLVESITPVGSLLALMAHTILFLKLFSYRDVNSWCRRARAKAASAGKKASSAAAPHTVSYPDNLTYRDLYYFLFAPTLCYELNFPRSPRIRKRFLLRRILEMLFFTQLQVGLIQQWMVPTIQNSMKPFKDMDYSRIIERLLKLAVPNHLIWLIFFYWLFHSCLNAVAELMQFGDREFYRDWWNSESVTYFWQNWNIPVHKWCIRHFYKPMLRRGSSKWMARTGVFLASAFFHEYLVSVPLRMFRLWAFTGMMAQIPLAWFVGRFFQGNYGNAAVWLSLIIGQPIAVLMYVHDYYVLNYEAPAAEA
Assay: DGAT inhibitory activity: [14C]-triglyceride synthesis by DGAT1 high expression Sf9 microsome
Type: biochemical
Conditions: Table 2, 25 μM dioleoylglycerol, 25 μM [14C]-Oleoyl-CoA, 32° C., 15 min, read-out: DGAT inhibitory activity (according to IC50)

CCOc1ccc(C(=O)CCC(=O)Nc2cc(-c3ccccc3)cc(Cc3ccccc3)n2)cc1OCC	50 to 500 nM

Query: May I ask what IC50 has been recorded for `CCOC(=O)c1c(NC(=O)CCC(=O)c2ccc(OCC)c(OCC)c2)sc(Cc2ccccc2)c1-c1ccccc1` ?
Reply: 50 to 500 nM

Query: Given `CCOc1ccc(C(=O)CCC(=O)Nc2cc(-c3cc(C)c(O)c(C)c3)cc(-c3ccccc3)n2)cc1OCC` , state its recorded IC50.
Reply: 10 to 50 nM

Query: Entry `O=C(CCC(=O)c1ccc2c(c1)CCCC2)Nc1cc(-c2ccccc2)c2cc(Cl)ccc2n1` has what IC50?
Reply: 50 to 500 nM

Query: Data request, read-out IC50, for `COc1ccc(-c2cc(NC(=O)CCC(=O)c3ccc4c(c3)CCO4)nc(-c3ccccc3)c2)cc1`
Reply: 50 to 500 nM

Query: Quick one: IC50 for `CCc1ccc(C(=O)CCC(=O)Nc2nc(-c3ccccc3)c(Cc3ccccc3)s2)s1` ?
Reply: 10 to 50 nM

Query: // IC50 lookup, key: `O=C(CCC(=O)c1ccc2c(c1)CCO2)Nc1cc(-c2ccoc2)cc(-c2ccccc2)n1`
Reply: 50 to 500 nM

Query: Fill in the blank: the reported IC50 of `CCOc1ccc(C(=O)CCC(=O)Nc2cc(-c3ccc(O)cc3)cc(-c3ccccc3)n2)cc1OCC` is ____.
Reply: ≤ 10 nM

Measured values drawn from patent US20090048258A1 for this set.
